# maps each entry to its IC50
- SYSTEM: JAK2 (Homo sapiens, UniProt O60674)
- Construct: All enzymes only contain the catalytic domain; His (N)
- Sequence (O60674 849-1124 limits assumed): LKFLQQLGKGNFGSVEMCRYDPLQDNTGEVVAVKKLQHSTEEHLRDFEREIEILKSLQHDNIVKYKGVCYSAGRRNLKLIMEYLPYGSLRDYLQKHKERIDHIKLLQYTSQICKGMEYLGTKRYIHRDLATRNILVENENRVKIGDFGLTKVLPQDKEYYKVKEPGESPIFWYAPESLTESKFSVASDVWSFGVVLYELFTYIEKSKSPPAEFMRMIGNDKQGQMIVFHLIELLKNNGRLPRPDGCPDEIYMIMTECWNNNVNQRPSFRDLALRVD
- ASSAY SUMMARY: In vitro enzyme assay (cell-free HTRF kinase assay), JAK2
- CONDITION DETAILS: catalytic domain, His-tag; ATP 10 μM, SRCtide 25 nM, reaction 30 min

q: What measured IC50 goes with CCNC(=O)c1cc(Cl)c(C(=O)n2ccc3cnc(NC(=O)C4CC4)cc32)c(Cl)c1 [Compound No. 130] ?
a: < 50 nM

q: Consider next the compound O=C(Nc1nccc2c1ccn2C(=O)c1c(Cl)cc(-c2cncnc2)cc1Cl)C1CC1 [Compound No. 89] in the same way.
a: < 50 nM

q: Try this compound next: CCNC(=O)c1cc(Cl)c(C(=O)c2c[nH]c3c(NC(=O)C4CC4)nccc23)c(Cl)c1 [Compound No. 13]
a: < 500 nM

q: Now the same for CCNC(=O)Nc1cc(Cl)c(C(=O)n2ccc3c(NC(=O)C4CC4)nccc32)c(Cl)c1 [Compound No. 103]
a: < 500 nM

q: Okay, and CNCc1cc(Cl)c(C(=O)n2ccc3c(NC(=O)C4CC4)nccc32)c(Cl)c1 [Compound No. 163] ?
a: < 500 nM

q: What do you get for O=C(c1c(F)cccc1Cl)c1c[nH]c2c(NC(=O)C3CC3)nccc12 [Compound No. 11] ?
a: < 100 nM

q: Please answer likewise for O=C(NCC1CC1)c1cc(Cl)c(C(=O)c2c[nH]c3c(NC(=O)C4CC4)nccc23)c(Cl)c1 [Compound No. 55]
a: < 500 nM

q: Another compound: O=C(Nc1nccc2c1ccn2C(=O)c1c(Cl)cc(CNCCCN2CCOCC2)cc1Cl)C1CC1 [Compound No. 166]
a: < 1000 nM

* * *

Catalogue of IC50 readings, one per entry.
- SYSTEM: JAK2 (Homo sapiens, UniProt O60674)
- Construct: All enzymes only contain the catalytic domain; His (N)
- ASSAY SUMMARY: In vitro enzyme assay (cell-free HTRF kinase assay), JAK2
- CONDITION DETAILS: catalytic domain, His-tag; ATP 10 μM, SRCtide 25 nM, reaction 30 min

COMPOUND	VALUE MEASURED
O=C(c1c(Cl)cc(-c2cncnc2)cc1Cl)c1c[nH]c2c(NC(=O)C3CC3)nccc12 [Compound No. 47]	< 100 nM

q: Looking for the measured IC50 of O=C(NCCCO)c1cc(Cl)c(C(=O)c2c[nH]c3c(NC(=O)C4CC4)nccc23)c(Cl)c1 [Compound No. 30] , can you help?
a: < 500 nM

q: Another: O=C(O)CNC(=O)c1cc(Cl)c(C(=O)c2c[nH]c3c(NC(=O)C4CC4)nccc23)c(Cl)c1 [Compound No. 36]
a: < 100 nM

q: Same question for O=C(NCCN1CCCC1)c1cc(Cl)c(C(=O)n2ccc3c(NC(=O)C4CC4)nccc32)c(Cl)c1 [Compound No. 148] please.
a: < 500 nM

q: Repeat for the following compound: O=C(NCCF)c1cc(F)c(C(=O)c2c[nH]c3c(NC(=O)C4CC4)nccc23)c(F)c1 [Compound No. 59]
a: < 500 nM

q: And then O=C(Nc1nccc2c1ccn2C(=O)c1c(Cl)cccc1Cl)C1CC1 [Compound No. 77] , what is it?
a: < 500 nM

q: Please give the result for N#Cc1cc(Cl)c(C(=O)c2c[nH]c3cnccc23)c(Cl)c1 [Compound No. 6] too.
a: < 500 nM

q: Next compound: N#Cc1cc(Cl)c(C(=O)n2ccc3cnccc32)c(Cl)c1 [Compound No. 95]
a: < 500 nM

Value source: patent US8980911B2
